- Tested on: MS2 coat protein
- EXPERIMENTAL_PROTOCOL: apparent KD of MS2 coat protein; designed switch direction (-1 OFF switch, 1 ON switch): 1; higher = weaker reporter binding
- RECORDED_CONDITIONS: input ligand: microRNA oligo, concentration not stated
We use 40 nM as the dividing line for apparent KD of MS2 coat protein: on or above the line is TRUE, below is FALSE.

Determine whether measured apparent KD of MS2 coat protein meets or exceeds 40 nM for GUGAAGAAUUAAGGAUAUCGAGUCAAGAUGUUAAACAUGAGGAUCACCCAUGUGGGUUGCGGUAUCGAGAAGGUAAAUUACAAG [salish99_SSNG2_r04_501] (Eterna round: R96, puzzle: Same State NG 2) FALSE

Entry GUGGUCAGACAUGAGGAUCACCCAUGUGGAAUAAAUAACAGACAGGAUAUCCAAUAUAGGAUAUAGGAGAAGGGUCGAUUGGUG (Eterna round: R96, puzzle: Same State NG 3) : is its apparent KD of MS2 coat protein no less than 40 nM? TRUE

Form field: apparent KD of MS2 coat protein at least 40 nM? Entry: AUUACUAACAUAGGAUAUCAUGCGAAAAUUGCGUGAGAAGGGUGGACACUGUCUUUCUCGGAGCACAUGAGGAUCACCCAUGUG [SameState NG1 #69] (Eterna round: R96, puzzle: Same State NG 1) TRUE

Can UGUUGUAUUACAGGAUAUCUAUUAUUUUGAUUUAGAGAAGGGUAUUCACAUGAGGAUCACCCAUGUAUAUACGAGGAAGUUGUG [JMF's solution 22] (Eterna round: R96, puzzle: Same State NG 1) be said to have apparent KD of MS2 coat protein at or above 40 nM? FALSE

Has CGUCGUUUGGUAGGAUAUCGCUAUACAUGAGGAUCACCCAUGUUUACCACGCUGGUUUUUCAUACCGAGAAGGAUUCUGAUGUU [salish99_SSNG02_r04_017] (Eterna round: R96, puzzle: Same State NG 2) a recorded apparent KD of MS2 coat protein greater than or equal to 40 nM? FALSE

Kindly determine if apparent KD of MS2 coat protein recorded for UUUUUUAUCGUAGGAUAUAGGUUGAAUAAUAGACUAGAAGGACGUCACAUGAGGAUCACCCAUGUUUUUUAAGUGUCGAAGUGU [JR_SSNG1_Sub040] (Eterna round: R96, puzzle: Same State NG 1) is above or exactly 40 nM. FALSE

Given GCAGGACAUGAGGAUCACCCAUGUCUCAAAUAUUGAGGAUAUGGACACGGUAUAUCCGAACCAGAAGGCAACCUGC [SS1 Teenbexe 20] (Eterna round: R96, puzzle: Same State 1) , state whether its apparent KD of MS2 coat protein is at least 40 nM. FALSE

Quick check, apparent KD of MS2 coat protein >= 40 nM? GUACAGAUCACAGGAUAUCACGUCGUUUAGACGUGAGAAGGGUGAUCACACAUGAAUAUUAAUACAUGAGGAUCACCCAUGUAC [SSNG1/16-A3] (Eterna round: R96, puzzle: Same State NG 1) FALSE

Could you please find out whether ACAUGAGAGCUAGGAUAUUUUGUACCUACAUGUGACAUGAGGAUCACCCAUGUGGUAAGUAUGAGAAAGAAGGAGCAGAUAUGU [Equivalance 53 - Jieux - Same State NG 2] (Eterna round: R96, puzzle: Same State NG 2) has apparent KD of MS2 coat protein that meets 40 nM or exceeds it? FALSE

Is it the case that GGAGCCGGCCUAGGAUAUUUCAUAAAAUUACAUGAGGAUCACCCAUGUAGGCCAGAAGGCCUUGGGAAGAAGGAGGUCGGCUCC [Loop Effect - U28,U29] (Eterna round: R96, puzzle: Same State NG 2) has apparent KD of MS2 coat protein reaching or exceeding 40 nM? FALSE

Can ACAUGAGAGUUAGGAUAUCUUGUACCUACAUGUGACAUGAGGAUCACCCAUGUGGUAAGUAUGACAGAGAAGGAACAGAUAUGU [Equivalance 69 - Jieux - Same State NG 2] (Eterna round: R96, puzzle: Same State NG 2) be said to have apparent KD of MS2 coat protein at or above 40 nM? TRUE

Does the sequence UGUUGUAUUACAGGAUAUCUAUUGUUUUUAGUUAGAGAAGGGUAUUCACAUGAGGAUCACCCAUGUAUAUACGAGGAAGUUGUG [JMF's solution 82] (Eterna round: R96, puzzle: Same State NG 1) have recorded apparent KD of MS2 coat protein that is 40 nM or more? FALSE

Please indicate if the recorded apparent KD of MS2 coat protein for CUUUUUAAUGCAGGAUAUGAUCAACAUGAGGAUCACCCAUGUGGUGUUGUGAGUAAGGAGAGUGAUCAGAAGGGCAUCUUUUCA [SS-NG2-LRO04] (Eterna round: R96, puzzle: Same State NG 2) meets or exceeds 40 nM. TRUE

Determine whether measured apparent KD of MS2 coat protein meets or exceeds 40 nM for UUAAUGAUGAUAGGAUAUACAUGAGGAAUUCUCGUAGAAGGAUCAUGACAUGAGGAUCACCCAUGUAUCGCUCGAAAGAGCGUA [Mat - Same State NG 1 - JL mod - D33] (Eterna round: R96, puzzle: Same State NG 1) TRUE

Is the recorded value of apparent KD of MS2 coat protein equal to or greater than 40 nM for this sequence? GAAUAGUUGAGAGGAUAUCUAUUAUAAAAGGAUAGAGAAGGUUUUAACAUGAGGAUCACCCAUGUAGGACUAUAUAUGUGAAUA [Parity 100 - Jieux - Same State NG 1] (Eterna round: R96, puzzle: Same State NG 1) FALSE
